Reported CDMF75 IC15 values for a set of compounds
biological target: bovine cardiac myofibrils (full-length cardiac myosin ATPase in the native sarcomere) (Bos taurus (Bovine), UniProt Q9BE39); experiment: Skinned bovine cardiac myofibril ATPase assay (PK/LDH-coupled); format: biochemical; settings: Ca2+ activating to 75% of maximal rate, concentration giving 15% inhibition
Sequence (Q9BE39 whole entry): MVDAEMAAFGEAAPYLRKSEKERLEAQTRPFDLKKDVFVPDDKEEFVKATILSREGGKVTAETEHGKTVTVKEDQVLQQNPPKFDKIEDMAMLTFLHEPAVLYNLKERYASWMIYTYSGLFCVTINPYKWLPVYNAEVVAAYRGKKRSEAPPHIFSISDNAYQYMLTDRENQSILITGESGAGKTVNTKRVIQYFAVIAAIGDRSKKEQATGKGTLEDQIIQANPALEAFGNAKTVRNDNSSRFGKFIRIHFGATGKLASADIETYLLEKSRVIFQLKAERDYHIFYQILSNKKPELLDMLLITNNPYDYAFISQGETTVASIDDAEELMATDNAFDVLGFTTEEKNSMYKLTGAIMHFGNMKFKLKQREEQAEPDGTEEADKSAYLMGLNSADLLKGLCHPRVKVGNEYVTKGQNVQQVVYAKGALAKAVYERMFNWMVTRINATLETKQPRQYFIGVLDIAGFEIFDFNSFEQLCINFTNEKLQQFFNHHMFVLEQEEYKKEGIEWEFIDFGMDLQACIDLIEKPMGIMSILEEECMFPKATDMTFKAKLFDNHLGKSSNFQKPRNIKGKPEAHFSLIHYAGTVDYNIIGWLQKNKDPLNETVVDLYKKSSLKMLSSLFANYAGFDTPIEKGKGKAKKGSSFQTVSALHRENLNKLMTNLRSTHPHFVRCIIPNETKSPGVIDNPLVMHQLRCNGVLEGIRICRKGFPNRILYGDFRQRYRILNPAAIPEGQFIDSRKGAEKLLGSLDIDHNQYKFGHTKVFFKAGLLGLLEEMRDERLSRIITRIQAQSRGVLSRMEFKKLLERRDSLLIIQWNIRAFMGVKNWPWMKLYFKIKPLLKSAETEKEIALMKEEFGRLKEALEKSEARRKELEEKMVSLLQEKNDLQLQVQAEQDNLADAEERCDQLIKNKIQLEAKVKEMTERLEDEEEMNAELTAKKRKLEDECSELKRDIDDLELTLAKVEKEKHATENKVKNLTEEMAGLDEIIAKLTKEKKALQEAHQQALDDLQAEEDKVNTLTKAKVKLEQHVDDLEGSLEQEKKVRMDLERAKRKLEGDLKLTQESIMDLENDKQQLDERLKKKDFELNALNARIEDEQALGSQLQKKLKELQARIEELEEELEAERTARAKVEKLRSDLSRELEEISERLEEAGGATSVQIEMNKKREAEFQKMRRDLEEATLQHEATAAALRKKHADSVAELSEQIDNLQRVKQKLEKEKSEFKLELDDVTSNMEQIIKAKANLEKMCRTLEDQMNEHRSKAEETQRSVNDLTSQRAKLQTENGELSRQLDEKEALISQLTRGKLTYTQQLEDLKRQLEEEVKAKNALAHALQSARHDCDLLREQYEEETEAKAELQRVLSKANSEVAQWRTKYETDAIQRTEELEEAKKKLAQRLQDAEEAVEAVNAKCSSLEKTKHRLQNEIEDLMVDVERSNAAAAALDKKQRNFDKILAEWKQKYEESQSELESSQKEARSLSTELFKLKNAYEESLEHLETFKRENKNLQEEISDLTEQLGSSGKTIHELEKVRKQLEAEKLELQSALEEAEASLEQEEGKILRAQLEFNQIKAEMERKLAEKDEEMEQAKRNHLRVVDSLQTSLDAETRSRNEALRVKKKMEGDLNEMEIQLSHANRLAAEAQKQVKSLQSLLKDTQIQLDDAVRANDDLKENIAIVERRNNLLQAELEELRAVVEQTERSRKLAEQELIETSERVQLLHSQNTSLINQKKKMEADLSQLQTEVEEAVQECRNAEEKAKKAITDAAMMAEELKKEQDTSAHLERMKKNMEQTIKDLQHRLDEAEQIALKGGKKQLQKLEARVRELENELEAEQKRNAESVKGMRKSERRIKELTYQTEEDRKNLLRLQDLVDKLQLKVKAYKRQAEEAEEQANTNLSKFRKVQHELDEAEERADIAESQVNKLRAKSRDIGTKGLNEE
Sequence (P85100 whole entry partner): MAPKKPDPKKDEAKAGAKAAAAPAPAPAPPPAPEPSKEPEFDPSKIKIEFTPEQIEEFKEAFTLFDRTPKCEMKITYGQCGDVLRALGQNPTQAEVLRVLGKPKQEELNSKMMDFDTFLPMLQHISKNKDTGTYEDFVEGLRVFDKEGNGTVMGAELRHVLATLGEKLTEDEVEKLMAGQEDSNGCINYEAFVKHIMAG
Sequence (Q3SZE5 whole entry partner): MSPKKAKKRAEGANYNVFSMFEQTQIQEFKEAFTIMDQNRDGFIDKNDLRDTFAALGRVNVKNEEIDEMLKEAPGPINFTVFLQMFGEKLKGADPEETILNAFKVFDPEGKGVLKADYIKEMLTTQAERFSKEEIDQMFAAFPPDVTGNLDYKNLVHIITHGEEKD
Write the answer as a number in µM, unit excluded.

Worked cases, CDMF75 IC15 given:
compound="Cc1nc(-c2ccc3c(c2)CC[C@H]3NC(=O)c2cn[nH]c2)no1 [Compound 487]" unit_string=µM endpoint_value=0.9
compound="CCc1nc(-c2ccc3c(c2)CC[C@H]3NC(=O)c2cnn(CCO)c2C)no1 [Compound 572]" unit_string=µM endpoint_value=0.5
compound="Cc1nc(-c2ccc3c(c2)CCC3NC(=O)c2ccnc(N)c2)no1 (stereo not shown) [Compound 33]" unit_string=µM endpoint_value=1.3

Then this compound:
Kindly note the recorded CDMF75 IC15 for CCc1nc(-c2ccc3c(c2)OC[C@H]3NC(=O)c2cc(C)nn2C)no1 [Compound 231] , which is 0.3

###

biological target: bovine cardiac myofibrils (full-length cardiac myosin ATPase in the native sarcomere) (Bos taurus (Bovine)); assay: Skinned bovine cardiac myofibril ATPase assay (PK/LDH-coupled); conditions: Ca2+ activating to 75% of maximal rate, read-out: CDMF75 IC50
Endpoint Name: pIC50
Hey, just a heads up that pIC50 is the negative log base 10 of the concentration in molar.

Worked cases, answers included:
molecule="CCc1nc(-c2ccc3c(c2)CC[C@H]3NC(=O)c2cnco2)no1 [Compound 583]" endpoint_name=pIC50 endpoint_value=5.89
molecule=Cc1nc(-c2ccc3c(c2)OC[C@H]3NC(=O)c2ccnn2C)no1 endpoint_name=pIC50 endpoint_value=5.74
molecule="O=C(NC1CCc2cc(-c3noc(C(F)F)n3)ccc21)c1ccccc1 (stereo not drawn)" endpoint_name=pIC50 endpoint_value=5.80
molecule=Cn1cc(C(=O)N[C@@H]2COc3cc(-c4noc(C5CC5)n4)ccc32)cn1 endpoint_name=pIC50 endpoint_value=5.74
molecule=Cc1noc(-c2ccc3c(c2)CC[C@H]3NC(=O)c2cnc(C)n2C)n1 endpoint_name=pIC50 endpoint_value=4.93

Field: next molecule
Measured pIC50 of Cc1ncoc1C(=O)N[C@@H]1COc2cc(-c3noc(C4CC4)n3)ccc21 : 5.96

###

molecular target: bovine cardiac myofibrils (full-length cardiac myosin ATPase in the native sarcomere) (Bos taurus (Bovine), UniProt Q9BE39); test: Skinned bovine cardiac myofibril ATPase assay (PK/LDH-coupled); conditions: Ca2+ activating to 75% of maximal rate, read-out: CDMF75 IC50
Endpoint Name: IC50

What the record says about Cc1cc(C(=O)NC2COc3cc(-c4noc(C)n4)cnc32)ccn1 (stereo not drawn) : IC50 is > 39.2 µM

Per the records, this molecule ( Cc1cc(-c2ccc3c(c2)CC[C@H]3NC(=O)c2ccnn2C)cnn1 ) has IC50 equal to > 39.2 µM

Just so you know, measured IC50 for Cc1cnc(C(=O)NC2CCc3cc(-c4noc(C(F)F)n4)ccc32)c(C)n1 (stereo not drawn) came out at > 39.2 µM
